Source of measurements: ChEMBL document CHEMBL1153286

Catalogue of Activity values
# experimental.details: Effect on insulin release in rat pancreatic cells at 100 umol/L after 6 hrs by radioimmunoassay
# Assay type: functional
metric.name: Activity (uIU/ml)

• CC1CCC(NC(=O)NS(=O)(=O)c2ccc(CCNS(=O)(=O)c3ccccc3)cc2)CC1 (stereo not drawn) = 52.23
• COc1ccc(NC(=S)NS(=O)(=O)c2ccc(CCNS(=O)(=O)c3ccc(Br)cc3)cc2)cc1 = 26.17
• O=C(NC1CCCCC1)NS(=O)(=O)c1ccc(CCNS(=O)(=O)c2ccc(Cl)cc2)cc1 = 55.03
• CC1CCC(NC(=O)NS(=O)(=O)c2ccc(CCNS(=O)(=O)c3ccc(Br)cc3)cc2)CC1 (stereo not drawn) = 86.08
• O=C(NC1CCCCC1)NS(=O)(=O)c1ccc(CCNS(=O)(=O)c2ccc(Br)cc2)cc1 = 65.98
• COc1ccc(NC(=S)NS(=O)(=O)c2ccc(CCNS(=O)(=O)c3ccc(Cl)cc3)cc2)cc1 = 26.09
• CCC1=C(C)CN(C(=O)NCCc2ccc(S(=O)(=O)NC(=O)N[C@H]3CC[C@H](C)CC3)cc2)C1=O [GLIMEPIRIDE] = 48.14
• COc1ccc(NC(=S)NS(=O)(=O)c2ccc(CCNS(=O)(=O)c3ccccc3)cc2)cc1 = 23.42
